# credit: paper PMC5706701

Target: Human IP6K1 (Homo sapiens)
Construct: GST (N, cleaved yes); made in house; host or cells: C43 E. coli, pGEX-6P-2
Sequence (Q92551 whole entry): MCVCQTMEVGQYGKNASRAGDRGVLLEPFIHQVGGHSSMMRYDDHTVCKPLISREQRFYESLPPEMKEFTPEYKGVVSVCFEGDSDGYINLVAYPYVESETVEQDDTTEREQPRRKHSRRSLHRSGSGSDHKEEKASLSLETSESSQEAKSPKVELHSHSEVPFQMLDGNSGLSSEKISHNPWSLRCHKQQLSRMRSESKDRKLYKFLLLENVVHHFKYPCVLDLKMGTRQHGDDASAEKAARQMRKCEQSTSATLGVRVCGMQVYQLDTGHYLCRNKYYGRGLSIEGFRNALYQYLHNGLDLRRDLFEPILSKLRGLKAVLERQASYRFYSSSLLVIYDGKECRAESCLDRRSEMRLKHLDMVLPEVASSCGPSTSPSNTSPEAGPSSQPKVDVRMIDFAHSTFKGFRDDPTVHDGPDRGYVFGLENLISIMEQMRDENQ
Test: IP6K1 high-throughput screen of the Sigma LOPAC (ADP-Glo Max, single point);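 also: final compound concentration 10µM in 5% DMSO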
Assay type: biochemical
Conditions: LOPAC single-point screen, ADP-Glo Max luminescence raw signal per well
Where a name gives a salt, the structure may show the parent alone.
experimental.endpoint: Raw Signal
Respond using a number only.

Some solved entries appear below for comparison.
>>> df
                                   compound       target_or_test_system  experimental_endpoint  recorded_value
0  CC1(C)CCC=[N+]1[O-] [5,5-Dimethyl-1-pyrroline-N-oxide]  Human IP6K1 (Homo sapiens)             Raw Signal           51954
1  CC(CCc1ccc(O)cc1)NCCc1ccc(O)c(O)c1 (centres unmarked) [Dobutamine hydrochloride]  Human IP6K1 (Homo sapiens)             Raw Signal           52494
2  O=C(O)/C=C1\CCCc2ccccc2C1O (centres unmarked)  Human IP6K1 (Homo sapiens)             Raw Signal           49943
3  C[N+]1(C)C2CCC1CC(OC(=O)c1c[nH]c3ccccc13)C2.[I-] (centres unmarked)  Human IP6K1 (Homo sapiens)             Raw Signal           66909

Now for a further compound.
Exercise: What does the record list as Raw Signal for `COc1ccc(/C=C/C(=O)Nc2ccccc2C(=O)O)cc1OC` ?
Solution: 68948
